- Tested on: B16-F10
- TEST PROTOCOL: Antiproliferative activity against mouse B16F10 cells after 72 hrs by MTS/PMS assay
- Format: functional, cell-based
- CONDITION DESCRIPTION: B16-F10, 72 h
REPORTED METRIC: IC50

Illustrative cases are given below, each with its answer.
- MOLECULE: "COc1cccc(-c2cc(C(=O)Nc3cc4cc(OC)c(O)c(C)c4oc3=O)ccc2OC)c1"
  REPORTED: "5770 nM"
- MOLECULE: "COc1cccc(-c2cc(C(=O)Nc3cc4cc(OC)c(OC5CCCNC5)c(C)c4oc3=O)ccc2OC)c1 (stereo unspecified)"
  REPORTED: "1840 nM"

Provide the reported IC50 of each entry below, same order.
1. COc1cccc(-c2cc(C(=O)Nc3cc4ccc(O[C@@H]5OCC[C@@H](O)[C@H]5O)c(C)c4oc3=O)ccc2OC)c1
2. COc1cc2cc(NC(=O)c3cc4ccccc4[nH]3)c(=O)oc2c(C)c1OCCCN(C)C
3. COc1cccc(-c2cc(C(=O)Nc3cc4ccc(O[C@@H]5OCCC[C@H]5O)c(C)c4oc3=O)ccc2OC)c1
4. COc1cccc(-c2cc(C(=O)Nc3cc4ccc(OC5C=CCC(C)C5)c(C)c4oc3=O)ccc2OC)c1 (stereo unspecified)

Return:
1: 37500 nM; 2: 2030 nM; 3: 1010 nM; 4: > 50000 nM

---

- TEST PROTOCOL: Antiproliferative activity against human androgen-independent PC3MM2 cells after 72 hrs by MTS/PMS assay
- Assay type: functional, cell-based
- CONDITION DESCRIPTION: PC3MM2, 72 h
Entries are grouped by IC50 into these classes: zone 1: < 2 µM; zone 2: ≥ 2 µM and < 4 µM; zone 3: ≥ 4 µM

// below: answered compounds
- COMPOUND: "COc1cccc(-c2cc(C(=O)Nc3cc4cc(OC)c(O[C@@H]5C[C@H](O)CCO5)c(C)c4oc3=O)ccc2OC)c1"
  ASSIGNED LABEL: "zone 2"
- COMPOUND: "COc1cccc(-c2cc(C(=O)Nc3cc4ccc(OCC(O)CO)c(C)c4oc3=O)ccc2OC)c1 (configuration not stated)"
  ASSIGNED LABEL: "zone 1"
- COMPOUND: "COc1cccc(-c2cc(C(=O)Nc3cc4ccc(OC5CN(C)C[C@@H](O)[C@H]5O)c(C)c4oc3=O)ccc2OC)c1 (some centres not stated)"
  ASSIGNED LABEL: "zone 2"
- COMPOUND: "CNC(=O)Oc1c(OC)cc2cc(NC(=O)c3ccc(OC)c(-c4cccc(OC)c4)c3)c(=O)oc2c1C"
  ASSIGNED LABEL: "zone 2"

Enquiry: Hello team, could you let me know which band the following compound falls into: CNC(=O)Oc1ccc2cc(NC(=O)c3ccc(OC)c(-c4cccc(OC)c4)c3)c(=O)oc2c1C
Return: zone 3

Enquiry: Hello team, could you let me know which band the following compound falls into: CNCCOc1ccc2cc(NC(=O)c3ccc(OC)c(-c4cccc(OC)c4)c3)c(=O)oc2c1OC
Return: zone 3

Enquiry: Hello team, could you let me know which band the following compound falls into: COc1cccc(-c2cc(C(=O)Nc3cc4ccc(O)c(C)c4oc3=O)ccc2OC)c1
Return: zone 3

Enquiry: Hello team, could you let me know which band the following compound falls into: CNC(=O)Oc1ccc2cc(NC(=O)c3ccc(OC)c(-c4cccc(OC)c4)c3)c(=O)oc2c1OC
Return: zone 1

Enquiry: Hello team, could you let me know which band the following compound falls into: COc1cc2cc(NC(=O)c3ccc(OC(C)=O)c(CC=C(C)C)c3)c(=O)oc2c(C)c1OC1CCN(C)CC1
Return: zone 1

Enquiry: Hello team, could you let me know which band the following compound falls into: COc1cccc(-c2cc(C(=O)Nc3cc4ccc(OC5C=CCN(C)C5)c(C)c4oc3=O)ccc2OC)c1 (configuration not stated)
Return: zone 1

Enquiry: Hello team, could you let me know which band the following compound falls into: COc1cccc(-c2cc(C(=O)Nc3cc4ccc(OC5C=CCN(C(C)=O)C5)c(C)c4oc3=O)ccc2OC)c1 (configuration not stated)
Return: zone 2

Numbers sourced from ChEMBL document CHEMBL1795208.
